experiment: CREB reporter modulators under forskolin, primary screen, cell-based, PC12, CRE-LacZ reporter, forskolin-stimulated (AID 1146); details: luminescence, 4.5 h, higher = more signal, called active from +8 up or from −8 down;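 also: PC12 cells with 6xCRE LacZ reporter stimulated by forskolin 10 µM; beta-galactosidase reporter signal reflecting CREB driven transcription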
READOUT: z-score

COMPOUND STRUCTURE STRING: CC(C)(C)N1C(=O)[C@H]2[C@H]3[C@H](O)[C@H](O)CC(=NNC(=O)OCc4ccccc4)[C@@H]3CC[C@H]2C1=O
READOUT: z-score
MEASURED VALUE: 0.314
//
COMPOUND STRUCTURE STRING: COc1ccc(O[C@H]2C=C[C@@H](c3ccccc3)O[C@@H]2CON=C(C)CCN2CCCc3nc(C)c(C)cc32)cc1
READOUT: z-score
MEASURED VALUE: 0.544
//
COMPOUND STRUCTURE STRING: CC(C)=NO[C@@H](C)c1cn([C@H](CO)Cc2ccccc2)nn1
READOUT: z-score
MEASURED VALUE: -0.537
//
COMPOUND STRUCTURE STRING: CC(C)=CCCC(C)=CCON=C1C[C@@H](O)[C@@H](O)[C@@H]2[C@@H]3C(=O)N(Cc4ccc5c(c4)OCO5)C(=O)[C@@H]3CC[C@H]12
READOUT: z-score
MEASURED VALUE: 0.489
//
COMPOUND STRUCTURE STRING: Cc1ccc(C(C)C)n1C(=O)OC(C)(C)C
READOUT: z-score
MEASURED VALUE: 0.686
//
COMPOUND STRUCTURE STRING: O=C1[C@H]2[C@H]3[C@H](O)[C@H](O)CC(=NOC[C@@H](O)COCc4ccco4)[C@@H]3CC[C@H]2C(=O)N1C1CCCCC1
READOUT: z-score
MEASURED VALUE: 0.148
//
COMPOUND STRUCTURE STRING: C[C@H]1C=CCC(=O)OC[C@H](C)C(=O)N2CCC[C@H]2C(=O)OC1
READOUT: z-score
MEASURED VALUE: 0.0267
//
COMPOUND STRUCTURE STRING: CC(C)CON=C1C[C@@H](O)[C@@H](O)[C@@H]2[C@@H]3C(=O)N(C(C)(C)C)C(=O)[C@@H]3CC[C@@H]12
READOUT: z-score
MEASURED VALUE: 0.549

* * *

test system: XIP peptide (Xip251-270) binding; assay: small-molecule binders of XIP peptide, primary screen, biochemical, small-molecule microarray, fluorescence 635/667 nm, 0.1 µg/mL protein (AID 1182); conditions: fluorescent protein binding, 635 nm, higher = more signal, called active from +8 up or from −8 down
READOUT: composite z-score

COMPOUND STRUCTURE STRING: CC(=O)OC[C@H]1O[C@@H](ON=C2[C@H]3CCn4c(=O)n(-c5ccccc5)c(=O)n4[C@H]3[C@H](O)[C@@H]3O[C@H]23)[C@H](OC(C)=O)[C@@H](OC(C)=O)[C@@H]1OC(C)=O
MEASURED VALUE: -0.455
--
COMPOUND STRUCTURE STRING: COC(=O)[C@H](CCSC)NC(=O)CC=C[C@@H](C)CO
MEASURED VALUE: -0.0999
--
COMPOUND STRUCTURE STRING: CCOC(=O)CCN1C(=O)[C@H]2[C@H]3[C@H](O)[C@H](O)CC(=O)[C@@H]3CC[C@H]2C1=O
MEASURED VALUE: 0.0603
--
COMPOUND STRUCTURE STRING: CC(=O)OC[C@H]1O[C@@H](ON=C(C)CCN2CCCCc3nc(C)c(C)cc32)[C@H](OC(C)=O)[C@@H](OC(C)=O)[C@@H]1OC(C)=O
MEASURED VALUE: -0.0733
--
COMPOUND STRUCTURE STRING: CO[C@H]1COC(=O)[C@H](C)COC(=O)[C@H](C)NC(=O)CC=C[C@H]1C
MEASURED VALUE: 0.126
--
COMPOUND STRUCTURE STRING: C=CC[C@@H]1C=C[C@H](ON=C(C)CCN2CCCCc3nc(C)c(C)cc32)[C@@H](CO)O1
MEASURED VALUE: -0.167
--
COMPOUND STRUCTURE STRING: CC(CCC(=O)OC[C@H]1O[C@H](C#Cc2ccccc2)C=C[C@@H]1Oc1ccc(C)cc1)=NO[C@H](C)c1cn([C@@H]2COC[C@H]2O)nn1
MEASURED VALUE: 0.0435
